test_readout: melting point

Measured melting point, CC(=O)Oc1c(C)c(C)c2c(c1C)CCC(C)(C(=O)OCCNCc1cc(N3CCCC3)nc(N3CCCC3)n1)O2 (stereo not given) : 69.5 to 76 °C

Measured melting point, "O=C1CC2(C(=O)N1)c1ccccc1Oc1ccccc12" : 226 to 228 °C

Measured melting point, C=CC(=O)NC1=CC(O)(C(C)=O)C(C(=O)O)C=C1 (stereo not given) : 171 °C

Measured melting point, "Cc1cccc(-n2cc(-c3ccc4c(c3)N(C(=O)CN3CCN(C)CC3)CCO4)nn2)n1" : 132 °C

Measured melting point, "CCCCc1oc2ccccc2c1S(=O)(=O)c1ccc(O)cc1" : 163 to 165 °C

Measured melting point, "C=C(C)CN1CCN(CCC(=O)N2c3ccccc3C(=O)Nc3cccnc32)CC1" : 210 to 211 °C

Measured melting point, "CC(C)Cn1c(CNC(=O)OC(C)(C)C)c(-c2ccc(Cl)cc2)c2cc(/C=C/C(N)=O)ccc2c1=O" : 152 to 154 °C

Measured melting point, "Nc1nc(-c2ccc(CCCCN3CCN(c4ccccc4)CC3)s2)cs1" : 165 to 167 °C

Measured melting point, "CCc1cc(CCc2nc3ccccc3o2)c(=S)[nH]c1C" : 199 to 201 °C

Measured melting point, "CNC(=O)OC1CC(C)(C)N(C)C(C)(C)C1" : 96 to 97 °C

Measured melting point, "C=C(c1ccc(OC)cc1)c1ccc(N(C)C)cc1" : 124 to 126 °C

Measured melting point, "COC(=O)NC[C@H]1CN(c2ccc3c(c2)CCCc2cnoc2-3)C(=O)O1" : 166 to 168 °C

Measured melting point, "CON=C(C#N)C(=O)NC(=O)NC1CC1" : 182 °C

Measured melting point, "COc1cc(OC)c(-c2nc(NC(=O)c3cc4ccccc4[nH]3)sc2C)cc1Cl" : 249 °C

Measured melting point, "COc1cccc(C=CC(=O)CC(=O)C=Cc2cccc(OC)c2OC)c1OC" : 117 to 120 °C

Measured melting point, "O=C(Nc1cccc(S(=O)(=O)NCc2ccccc2)c1)c1cnn2c(C(F)(F)F)cc(-c3ccc(C(F)(F)F)cc3)nc12" : 227 °C

Measured melting point, "CC(C)(C)C1=CC(=Nc2cc(C(=O)O)ccc2O)C=C(C(C)(C)C)C1=O" : 275 to 276 °C

Measured melting point, "CC(C)(NC=O)C(=O)O" : 130 to 131 °C

Measured melting point, COc1ccc(CC(=O)NC(NC(=NC#N)Nc2ccccc2C)C(C)(C)C)cc1 (stereo not given) : 174 °C

Measured melting point, "COCCOC(=O)c1c(S(C)(=O)=O)ccc(C(=O)O)c1C" : 90 to 93 °C

* * *

test_readout: melting point

Measured melting point, O=C(c1ccc(F)cc1)C1CCN(CCN2C(=O)Nc3ccc(Cl)cc3C2c2ccccc2)CC1 (stereo not given) : 196 °C

Measured melting point, "O=c1[nH]c(=O)n(Cc2cccc(OCc3noc(-c4ccc(F)cc4)n3)c2)o1" : 147 to 148 °C

Measured melting point, "C#Cc1ccc([C@H]2CC[C@H](CCCCC)CC2)nn1" : 114 to 116 °C

Measured melting point, "Nc1ccc(CCNC(=O)c2cc(O)c(O)c(O)c2)cc1" : 167 to 169 °C

Measured melting point, O=C(NC(Cc1ccccc1)c1ncc(C(F)(F)F)cc1Cl)c1c(Cl)cccc1Cl (stereo not given) : 164 to 168 °C

Measured melting point, CCCCNc1nc(N)nc2c1ncn2C1CC(N=[N+]=[N-])C(CO)O1 (stereo not given) : 44 to 47 °C

Measured melting point, "COC(=O)c1scc(-c2ccccc2)c1-c1ccc(S(=O)(=O)COC(C)=O)c(F)c1" : 165 °C

Measured melting point, "CCCN(CCC)c1nsc(N)c1C#N" : 136 to 138 °C

Measured melting point, Cc1c(CCC2C(=O)OCCC2OC2CCCCO2)c2c(c(C)c1OCc1ccccc1)CCC(C)(C)O2 (stereo not given) : 95 to 95.5 °C

Measured melting point, "CC(C)(C)OC(=O)N1[C@H](C=CCCCO)COC1(C)C" : 73 to 75 °C

* * *

test_readout: melting point

Measured melting point, N#CC1c2cccc(Br)c2C=CN1C(=O)c1ccccc1 (stereo unspecified) : 177 to 178 °C

Measured melting point, "CCCCC(=O)OCc1cnc(C)c(O)c1" : 114 to 115 °C

Measured melting point, "CCc1c2c(nn1-c1ccccc1)c(Cl)nc1ccccc12" : 207 to 209 °C

Measured melting point, CCc1cc(O)c(C(C)=O)c(OC2OC(COC(C)=O)C(OC(C)=O)C(OC(C)=O)C2OC(C)=O)c1 (stereo unspecified) : 125 to 127 °C

Measured melting point, COCCCS(=O)(=O)NC(=O)CC(C)c1ccc(OCCOC)cc1Oc1ncc(C(F)(F)F)cc1Cl (stereo unspecified) : 107 to 109 °C

Measured melting point, "O=C/C=C/C1=C(c2ccc(F)cc2)C=C(c2ccc(F)cc2)CC12CCCC2" : 120 to 124 °C

Measured melting point, "CCCc1c[nH]c2cc(CO)ccc12" : 68 to 71 °C

Measured melting point, "N#Cc1ccc(OCCCCCOc2cccc(-c3cc4cc(C#N)ccc4o3)c2)cc1" : 142 to 145 °C

Measured melting point, "O=C(NNC(=O)c1ccccc1O)c1ccccc1O" : 303 °C

Measured melting point, "O=C1CC(c2sccc2Cl)=Nc2ccc(-c3ccc(F)cc3)cc2N1" : 255 to 256 °C

Measured melting point, "O=[N+]([O-])c1cc(Br)cc2[nH]c(CCl)nc12" : 148 to 150 °C

Measured melting point, "CCOCc1nc2c(N)nc3ccccc3c2n1CC1(NC(=O)NC(C)C)CCCCC1" : 135 to 160 °C

Measured melting point, "O=C(O)c1ccc(-c2ccc3c(c2)CCN(CCN2CCCC2)C3=O)cc1" : 247 to 249 °C

Measured melting point, CCC1c2cc(OC)c(OC)cc2C(c2ccc(OC)c(OC)c2)=NNC1C (stereo unspecified) : 120 to 122 °C

Measured melting point, CC(=O)NCC1CN(c2ccc(N3CCN(c4nc5cc([N+](=O)[O-])ccc5o4)CC3)c(F)c2)C(=O)O1 (stereo unspecified) : 224 to 225 °C

Measured melting point, "COc1cc(C=O)ccc1NC(=O)OCC1c2ccccc2-c2ccccc21" : 150 to 152 °C

Measured melting point, "CCCCc1nc(Sc2ccccc2)c(C(=O)OCC)[nH]1" : 74 °C

Measured melting point, CCNC(=O)C1CC2(NC(=O)NC2=O)c2cc(F)ccc2O1 (stereo unspecified) : > 300 °C

Measured melting point, "C=CCc1cccc2c(=O)cc(-c3ccc(F)c(F)c3)oc12" : 127 to 130 °C

Measured melting point, "Cc1nc(C)c(-c2ccnc(Nc3ccc(C)c(S(=O)(=O)N4CCOCC4)c3)n2)s1" : 81 to 83 °C

Measured melting point, "c1ccc(Nc2nc[nH]c3ncc(-c4ccccc4)c2-3)cc1" : 208 to 209 °C

Measured melting point, "Cc1nc(SCc2ccncc2C(=O)O)sc1CC(=O)O" : 178 to 180 °C

Measured melting point, O=C1C=CN=CC1[N+](=O)[O-] (stereo unspecified) : 282 to 284 °C

Measured melting point, "CC(=O)Nc1cccc2c1CCCC2" : 158 °C

Measured melting point, "CCOC(=O)c1ccc(N(CCOc2ccc(C(C)=O)c3ccccc23)C(=O)C(F)(F)F)cc1" : 160 to 161 °C

Measured melting point, "COc1ccc2c(c1)c(-c1cc3nccnc3[nH]1)cn2CCO" : 270 to 273 °C

Measured melting point, "CN(C)CCCNC(=O)c1ccc(-c2cnc3c(c2)N(C(=O)c2ccccc2)CCN3)cc1" : 94 °C

Measured melting point, CCOC(=O)Cc1ccc2c(c1)CC(CC(=O)O)C2 (stereo unspecified) : 56 to 57 °C

Measured melting point, "CCCCOc1cc(/C=C(\OCC)C(=O)O)ccc1OCCc1ccc(NC(=O)CC)cc1" : 164 °C

Measured melting point, COC(=O)C1=C(C#N)NC(C)=C(C(=O)OCC(C)(C)C)C1c1ccccc1C#N (stereo unspecified) : 173 to 174 °C

Measured melting point, "O=C1c2ccccc2-c2[nH]nc(-c3ccncc3)c21" : > 300 °C

Measured melting point, "CC1(N)CCN(C2=Nc3c(nc(Cl)nc3Nc3ccc(F)c(Cl)c3)CN2)CC1" : 212 °C

Measured melting point, "COc1cc(C)c(C(=O)c2c(C)c(C)cc(C)c2C)c(OC)c1OC" : 143 °C

Measured melting point, "CS(=O)(=O)c1ccc(-c2cnn(Cc3ccc(F)cc3)c(=O)c2-c2ccc(F)cc2)cc1" : 153 to 154 °C

Measured melting point, "O=c1c2cc(Br)ccc2nc(CSc2ncnc3[nH]cnc23)n1-c1ccccc1Cl" : 212 to 242 °C

Measured melting point, "NP(N)(=O)NC(=O)c1cccs1" : 272 to 280 °C

Measured melting point, "S=C1NCCSc2ccsc21" : 138 to 139 °C

Measured melting point, "CN(c1ccc2sccc2c1)c1nc(=O)c2cccnc2s1" : 214 to 216 °C

Measured melting point, "O=C(c1cccnc1)c1cc(-c2ccncc2)c(N2CCOCC2)s1" : 124 °C

Measured melting point, "O=c1c(-c2ccc(F)cc2)c(-c2ccc(S(=O)(=O)C(F)(F)F)cc2)cnn1Cc1ccccc1" : 80 to 115 °C

Measured melting point, "O=C(O)C1(c2ccc(CN3CCN(c4ccc(F)cc4)CC3)cc2)CC1" : 74 to 77 °C
